# assaySummary: thallium influx changes without GIRK channels – cell-based, HEK-293 rmGlu8, no GIRK, thallium flux, counter-screen for GIRK activator project, confirmation (AID 623868);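 note: extra codes mark interference with 3 for fluorescent and 4 for baseline rise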
# testContext: thallium flux fluorescence, at 10 µM, actives lie on both sides, codes: 1 enhancer, -1 blocker, 0 none, thallium stimulus containing EC20 glutamate
Out of some 2,100 compounds screened, about 760 (36%) were called active. Not all results are given here.
Reported manual score values follow for various molecules
// no unit string in output, number only

Cc1ccc(NC(=O)Cc2c(Cl)cccc2Cl)cc1S(=O)(=O)N(C)C	0
CCc1cccc(NC(=O)NC2CCCCC2)c1	-0.5
CN(Cc1ccccc1)C(=S)NC(=O)C1CCCCC1	1
CN(Cc1ccccc1)C(=S)NC(=O)c1ccc(-c2ccccc2)cc1	1
COc1cc(/C=C2/C(=O)N=C(N)N2C)cc(OC)c1OC	0

**Q:** Would you kindly share the measured manual score for C=CCN(CC=C)C(=S)NC(=O)c1ccc(-c2ccccc2)cc1 ?
**A:** 1
